target: PDGFRβ (Homo sapiens); construct: expressed in transfected cells; host or cells: porcine aorta endothelial (PAE)-PDGFRβ cells; experiment: PAE-PDGFRβ phosphorylation in PAE-PDGFRB cells assay; format: cell-based; settings: library amides from Example 101 (R101), crude mixtures in DMSO; read-out: PAE PDGFR autophos IC50
Sequence (P09619 33-1106): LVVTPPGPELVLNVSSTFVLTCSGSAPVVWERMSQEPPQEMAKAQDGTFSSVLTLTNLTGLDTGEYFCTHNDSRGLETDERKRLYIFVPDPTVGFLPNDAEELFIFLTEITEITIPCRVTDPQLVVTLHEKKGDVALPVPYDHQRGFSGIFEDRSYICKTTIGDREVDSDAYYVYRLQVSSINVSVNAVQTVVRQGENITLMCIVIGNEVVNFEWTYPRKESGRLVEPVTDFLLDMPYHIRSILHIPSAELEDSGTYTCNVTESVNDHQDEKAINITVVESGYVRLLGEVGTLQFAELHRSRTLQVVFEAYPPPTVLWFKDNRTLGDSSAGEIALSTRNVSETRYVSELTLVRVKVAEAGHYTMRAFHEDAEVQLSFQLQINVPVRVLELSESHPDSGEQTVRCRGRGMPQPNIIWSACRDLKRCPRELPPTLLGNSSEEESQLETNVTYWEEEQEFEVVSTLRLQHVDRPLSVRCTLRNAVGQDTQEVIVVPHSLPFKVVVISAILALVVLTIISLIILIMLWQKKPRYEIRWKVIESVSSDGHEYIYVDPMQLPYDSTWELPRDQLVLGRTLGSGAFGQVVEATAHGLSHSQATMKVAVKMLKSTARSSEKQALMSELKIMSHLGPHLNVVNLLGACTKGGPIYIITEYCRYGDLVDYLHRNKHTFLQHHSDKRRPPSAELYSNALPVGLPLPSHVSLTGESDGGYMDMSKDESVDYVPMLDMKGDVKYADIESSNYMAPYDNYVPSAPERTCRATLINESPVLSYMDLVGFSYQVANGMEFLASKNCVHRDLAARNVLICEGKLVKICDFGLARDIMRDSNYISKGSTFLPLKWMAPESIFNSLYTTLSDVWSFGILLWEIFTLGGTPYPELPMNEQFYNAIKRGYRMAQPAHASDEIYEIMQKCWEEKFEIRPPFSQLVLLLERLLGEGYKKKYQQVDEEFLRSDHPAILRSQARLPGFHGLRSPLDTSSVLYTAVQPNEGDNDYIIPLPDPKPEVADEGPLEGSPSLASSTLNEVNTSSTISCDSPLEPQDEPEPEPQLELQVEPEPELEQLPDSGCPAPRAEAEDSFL
pIC50: −log10 of the molar value.
Property Name: pIC50

Cc1oc2cc(Oc3ccnc4ccsc34)ccc2c1C(=O)Nc1ccc2[nH]ncc2c1
~7.00
Cc1oc2cc(Oc3ccnc4ccsc34)ccc2c1C(=O)NCCOC(C)C [drawing 361]
7.21
Cc1ccc(NC(=O)c2c(C)oc3cc(Oc4ccnc5ccsc45)ccc23)c(O)c1
~7.00
Cc1oc2cc(Oc3ccnc4ccsc34)ccc2c1C(=O)Nc1ccc(N2CCOCC2)nc1 [drawing 369]
7.24
Cc1oc2cc(Oc3ccnc4ccsc34)ccc2c1C(=O)NCCc1cccc(C(F)(F)F)c1
< 7.00
COc1ccc(NC(=O)c2c(C)oc3cc(Oc4ccnc5ccsc45)ccc23)c(OC)n1
< 7.00
Cc1oc2cc(Oc3ccnc4ccsc34)ccc2c1C(=O)Nc1cc[nH]n1
< 7.00
Cc1csc(NC(=O)c2c(C)oc3cc(Oc4ccnc5ccsc45)ccc23)n1
< 7.00
Cc1cc(NC(=O)c2c(C)oc3cc(Oc4ccnc5ccsc45)ccc23)n[nH]1 [drawing 331]
7.34
Cc1oc2cc(Oc3ccnc4ccsc34)ccc2c1C(=O)Nc1cc(-c2ccco2)n[nH]1
< 7.00

Tell us which pIC50 value is on record for Cc1oc2cc(Oc3ccnc4ccsc34)ccc2c1C(=O)NCCCN1CCOCC1 [drawing 308]
7.28

Tell us which pIC50 value is on record for Cc1oc2cc(Oc3ccnc4ccsc34)ccc2c1C(=O)Nc1cnc2ccccc2c1
< 7.00

###

target: unphosphorylated VEGF-R2Δ50 (FLVK) (Homo sapiens, UniProt P35968, DEL940-989/E990V); construct: VEGF-R2Δ50 contains residues 806–939 and 990–1171; made in house; host or cells: baculovirus/insect cell system; experiment: VEGF-R2 coupled spectrophotometric assay, unphosphorylated VEGF-R2Δ50 (FLVK); type: biochemical; settings: 50 nM compound; unphosphorylated VEGF-R2Δ50; read-out: FLVK (% inh @ 50 nM)
Sequence (P35968 with tags, fused parts or gaps DEL940-989/E990V limits assumed): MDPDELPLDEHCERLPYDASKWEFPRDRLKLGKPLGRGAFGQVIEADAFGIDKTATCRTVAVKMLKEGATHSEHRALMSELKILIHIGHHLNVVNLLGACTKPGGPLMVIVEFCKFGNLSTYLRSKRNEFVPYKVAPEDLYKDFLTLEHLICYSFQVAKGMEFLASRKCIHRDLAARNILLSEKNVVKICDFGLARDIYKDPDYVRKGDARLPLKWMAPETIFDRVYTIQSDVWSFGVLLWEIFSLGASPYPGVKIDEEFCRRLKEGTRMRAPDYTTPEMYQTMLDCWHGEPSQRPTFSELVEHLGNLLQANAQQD
Property Name: inhibition at 0.05 µM (%)
Response body: numeric value in %, unit text excluded.

CNC(=O)c1c(C)oc2cc(Oc3ccnc4cc(C(=O)N5CCC[C@H]5CO)sc34)ccc12
95
Cc1sc2cc(Oc3ccnc4cc(-c5nc(CO)cs5)sc34)ccc2c1C(=O)NC1CC1
88
CNC(=O)c1csc(-c2cc3nccc(Oc4ccc5c(C(=O)NC)c(C)n(C)c5c4)c3s2)n1
67

// next entry
Tell us which inhibition at 0.05 µM value is on record for CO[C@@H]1CCN(C(=O)c2cc3nccc(Oc4ccc5c(C(=O)NC6CC6)c(C)oc5c4)c3s2)C1
95

###

target: unphosphorylated VEGF-R2Δ50 (FLVK) (Homo sapiens, UniProt P35968, DEL940-989/E990V); construct: VEGF-R2Δ50 contains residues 806–939 and 990–1171; made in house; host or cells: baculovirus/insect cell system; test: VEGF-R2 coupled spectrophotometric assay, unphosphorylated VEGF-R2Δ50 (FLVK); type: biochemical; settings: 50 nM compound; unphosphorylated VEGF-R2Δ50; read-out: FLVK (% inh @ 50 nM)
Property Name: inhibition at 0.05 µM (%)
Response body: numeric value in %, unit text excluded.

Use these answered entries as a reference point.
CCc1sc2cc(Oc3ccnc4cc(C(=O)N5CC[C@@H](O)C5)sc34)ccc2c1C(=O)NC [Example 136]
88
CNC(=O)c1c(C)n(C)c2cc(Oc3ccnc4cc(C(=O)N5CC(O)C5)sc34)ccc12 [Example 30]
63
CNC(=O)c1c(C)sc2cc(Oc3ccnc4cc(C(=O)N5CC[C@@H](OC)C5)sc34)ccc12 [Example 4]
88
CNC(=O)c1c(C)n(C)c2cc(Oc3ccnc4cc(-c5nc(CO)cs5)sc34)ccc12 [Example 26]
83
Cc1c(C(=O)NCCCO)c2ccc(Oc3ccnc4cc(C(=O)N5CCC5)sc34)cc2n1C [Example 63]
67
CNC(=O)c1c(C)n(C)c2cc(Oc3ccnc4cc(-c5nccs5)sc34)ccc12 [Example 41]
71
CNC(=O)c1c(C(C)C)oc2cc(Oc3ccnc4cc(C(=O)N5CC[C@@H](OC)C5)sc34)ccc12 [Example 15]
13

// next entry
Tell us which inhibition at 0.05 µM value is on record for CCc1sc2cc(Oc3ccnc4cc(C(=O)N5CC[C@@H](OC)C5)sc34)ccc2c1C(=O)NC [Example 135]
87

###

test system: Huvec; experiment: bFGF Huvec proliferation; format: cell-based, human; conditions: Homo sapiens, HUVEC
Overview of reported log10 IC50 across a group of compounds:
Short version: log10 scale, IC50, nM.

CO[C@@H]1CCN(C(=O)c2cc3nccc(Oc4ccc5c(C(=O)NCCCO)c(C)sc5c4)c3s2)C1
3.92
CNC(=O)c1c(C)sc2cc(Oc3ccnc4cc(-c5ccnn5C)sc34)ccc12
2.00
Cc1sc2cc(Oc3ccnc4cc(-c5nccn5C)sc34)ccc2c1C(=O)NCCCO
2.87
CNC(=O)c1c(C)n(C)c2cc(Oc3ccnc4cc(C(=O)N5CC[C@@H](OC)C5)sc34)ccc12
3.00

Tell us which log10 IC50 value is on record for CCc1sc2cc(Oc3ccnc4cc(-c5nccn5C)sc34)ccc2c1C(=O)NC
3.03

###

Target: unphosphorylated VEGF-R2Δ50 (FLVK) (Homo sapiens, UniProt P35968, DEL940-989/E990V)
Construct: VEGF-R2Δ50 contains residues 806–939 and 990–1171; made in house; host or cells: baculovirus/insect cell system
Test: VEGF-R2 coupled spectrophotometric assay, unphosphorylated VEGF-R2Δ50 (FLVK)
Format: biochemical
Conditions: 50 nM compound; unphosphorylated VEGF-R2Δ50; read-out: FLVK (% inh @ 50 nM)
Experimental: VEGF-R2 Construct for Assay: This construct determines the ability of a test compound to inhibit tyrosine kinase activity. […] The production of ADP from ATP that accompanies phosphoryl transfer was coupled to oxidation of NADH using phosphoenolpyruvate (PEP) and a system having pyruvate kinase (PK) and lactic dehydrogenase (LDH). The oxidation of NADH was monitored by following the decrease of absorbance at 340 nm (e340=6.22 cm^−1 mM^−1) using a Beckman DU 650 spectrophotometer. […]
Overview of reported inhibition at 0.05 µM across a group of compounds:
The reply should consist of the numeric value with the unit placed after it.

Tell us which inhibition at 0.05 µM value is on record for CCCCNC(=O)c1c(C)oc2cc(Oc3ccnc4ccsc34)ccc12
61%

Tell us which inhibition at 0.05 µM value is on record for CNC(=O)c1c(C)n(C)c2cc(Oc3ccnc4cc(-c5ccncc5)sc34)ccc12
60%

###

target: unphosphorylated VEGF-R2Δ50 (FLVK) (Homo sapiens, UniProt P35968, DEL940-989/E990V); construct: VEGF-R2Δ50 contains residues 806–939 and 990–1171; assay: VEGF-R2 coupled spectrophotometric assay, unphosphorylated VEGF-R2Δ50 (FLVK); details: unphosphorylated VEGF-R2Δ50
Property Name: Ki

Use these answered entries as a reference point.
CO[C@@H]1CCN(C(=O)c2cc3nccc(Oc4ccc5c(C(=O)NCC6CC6)c(C)oc5c4)c3s2)C1 [Example 91]
356 pM
CNC(=O)c1c(C(C)C)oc2cc(Oc3ccnc4cc(C(=O)N5CC[C@@H](OC)C5)sc34)ccc12 [Example 15]
48300 pM
Cc1oc2cc(Oc3ccnc4cc(C(=O)N5CCC[C@H]5CO)sc34)ccc2c1C(=O)NCC(C)C [Example 86]
1440 pM
CCCNC(=O)c1c(C)oc2cc(Oc3ccnc4cc(C(=O)N5CC[C@@H](OC)C5)sc34)ccc12 [Example 92]
200 pM
CCc1oc2cc(Oc3ccnc4cc(-c5nccn5C)sc34)ccc2c1C(=O)NC [Example 94]
1450 pM
Cc1c(C(=O)Nc2ccccn2)c2ccc(Oc3ccnc4cc(-c5nccs5)sc34)cc2n1C [Example 70]
430 pM

Tell us which Ki value is on record for CNC(=O)c1cn(C)c2cc(Oc3ccnc4cc(C(=O)N5CC[C@@H](OC)C5)sc34)ccc12 [Example 22]
25800 pM

Tell us which Ki value is on record for CNC(=O)c1c(Cl)n(C)c2cc(Oc3ccnc4cc(-c5nc(C(C)(C)O)cs5)sc34)ccc12 [Example 75]
2620 pM

Tell us which Ki value is on record for CO[C@@H]1CCN(C(=O)c2cc3nccc(Oc4ccc5c(C(=O)NC6CC6)c(C)sc5c4)c3s2)C1 [Example 11]
492 pM

Tell us which Ki value is on record for COC[C@@H]1CCCN1C(=O)c1cc2nccc(Oc3ccc4c(C(=O)NC5CC5)c(C)sc4c3)c2s1 [Example 120]
600 pM

Tell us which Ki value is on record for CNC(=O)c1c(C)n(C)c2cc(Oc3ccnc4cc(C(=O)N5CCC(CNC(=O)OC(C)(C)C)C5)sc34)ccc12 (stereo not shown) [Example 44]
1200 pM

Origin of the recorded values: patent US7045528B2
